Test system: U2OS
Test: Multiplex assay against U2OS
Assay type: toxicity, cell-based
Settings: human, 12 h, 10 µM, compound concentration 10 uM, replicate 1
Listed here are molecules together with their documented Total Cell Count.
The answer should be written as a number, with no unit following it.

>>> reported("O=C1COc2nccc(-c3ccccc3F)c2CN1Cc1cc(C(F)(F)F)cc(C(F)(F)F)c1")
200

Ask | For the molecule Cc1ccc(F)cc1C(=O)Nc1ccc(C(=O)N2Cc3cccn3Cc3ccccc32)c(Cl)c1 , give its measured Total Cell Count value.
Reply | 203

Ask | For the molecule CN1CCN2c3ncccc3Cc3ccccc3C2C1 (stereo not drawn) , give its measured Total Cell Count value.
Reply | 266

Ask | For the molecule CN(C)c1ccnc2sc3c(=O)n(N4CCCCCC4)cnc3c12 , give its measured Total Cell Count value.
Reply | 249

Ask | For the molecule C[C@H]1[C@H]2CC[C@H]3[C@@H]4CC=C5C[C@@H](N(C)C)CC[C@]5(C)[C@H]4CC[C@]23CN1C , give its measured Total Cell Count value.
Reply | 237

Ask | For the molecule Cl.Clc1ccc2nsnc2c1NC1=NCCN1 [TIZANIDINE HYDROCHLORIDE] , give its measured Total Cell Count value.
Reply | 280

Ask | For the molecule Cc1ccc(/C(=C\CN2CCCC2)c2ccccn2)cc1 , give its measured Total Cell Count value.
Reply | 264

Ask | For the molecule COc1cc(NC(=O)CCN2CCC(OC(=O)Nc3ccccc3-c3ccccc3)CC2)c(Cl)cc1CNC[C@H](O)c1ccc(O)c2[nH]c(=O)ccc12 , give its measured Total Cell Count value.
Reply | 196

# credit: ChEMBL document CHEMBL5058577
